- Test system: Saccharomyces cerevisiae;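 also: PSI is a weighted mean of sequencing reads over stability bins, variants kept only with over 10 reads, mCherry proximal and sfGFP distal, peptide attached via GGGS linker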
- procedure-summary: protein stability index of tFT-peptide fusion (C-terminal peptide) (PSI (0-1 scale)); higher = more stable (slower turnover)
- stated-conditions: genetic background: das1 deletion; temperature: 37 C
# binarize protein stability index: threshold 0.6 inclusive, high side MET, low side NOT MET

Reported protein stability index at or above 0.6? `LPVPARPFPPSS` MET

Reported protein stability index at or above 0.6? `LPPSTFLLHFLL` MET

Reported protein stability index at or above 0.6? `PPPPLFLIVLHL` MET

Reported protein stability index at or above 0.6? `RCSLRLRFIFVR` NOT MET

Reported protein stability index at or above 0.6? `WFFTDIVMLVRV` NOT MET

Reported protein stability index at or above 0.6? `SGMLVYFGTVCY` NOT MET

Reported protein stability index at or above 0.6? `WCAVRVWFGAAL` MET

Reported protein stability index at or above 0.6? `YIFLLRFFFFFS` NOT MET

Reported protein stability index at or above 0.6? `RRRGIYARASVV` MET

Reported protein stability index at or above 0.6? `FFLFLVCLFFFS` NOT MET

Reported protein stability index at or above 0.6? `FFAIFSLLLSFT` NOT MET

Reported protein stability index at or above 0.6? `YMVESVWVLLGT` NOT MET

Reported protein stability index at or above 0.6? `CVLGWCSLIAWC` NOT MET

Reported protein stability index at or above 0.6? `VAFLWVAFCFSG` NOT MET

Reported protein stability index at or above 0.6? `LEYCLATYLSAC` NOT MET

Reported protein stability index at or above 0.6? `FFVYFFLLLFWF` NOT MET

Reported protein stability index at or above 0.6? `VFSLAFYLVLFF` NOT MET

Reported protein stability index at or above 0.6? `SCLSLALLVFFG` NOT MET

Reported protein stability index at or above 0.6? `FVSVAGFIVVVV` NOT MET

Reported protein stability index at or above 0.6? `DILQITNIKQKR` MET

Reported protein stability index at or above 0.6? `FGKGRSLLLVFS` NOT MET

Reported protein stability index at or above 0.6? `WVVWWFACVFGV` NOT MET

Reported protein stability index at or above 0.6? `GTLVFTYLVLRC` NOT MET

Reported protein stability index at or above 0.6? `VVWVYSMLFSIW` NOT MET

Just for reference, the supplement of paper PMC10724198 is where these values come from.
